# assayComment: Intracellular total glutathione (GSH)
# Assay type: cell-based, rat
# experimentalConditions: rat, Total GSH TC50
Lab note: compare CC50 at 24 h with 50 µM, writing fulfilled if less and not fulfilled if equal or more.

Cc1cccc(C)c1OCC(=O)N[C@@H](Cc1ccccc1)[C@@H](O)C[C@H](Cc1ccccc1)NC(=O)[C@H](C(C)C)N1CCCNC1=O = not fulfilled

Enquiry: Is CC50 at 24 h of COc1cccc2c1C(=O)c1c(O)c3c(c(O)c1C2=O)C[C@@](O)(C(=O)CO)C[C@@H]3O[C@H]1C[C@H](N)[C@@H](O)[C@H](C)O1 [EPIRUBICIN, epirubicin] strictly below 50 µM?
Return: not fulfilled

Enquiry: Strictly below 50 µM: is that where CC50 at 24 h of CC(=O)[C@]1(O)Cc2c(O)c3c(c(O)c2[C@@H](O[C@H]2C[C@H](N)[C@H](O)[C@H](C)O2)C1)C(=O)c1ccccc1C3=O sits?
Return: fulfilled

Enquiry: Lab note: confirm whether the reported CC50 at 24 h for this compound is below 50 µM, equality not counting. compound: O=C1Nc2ccc(Cl)cc2[C@@](C#CC2CC2)(C(F)(F)F)O1
Return: not fulfilled

Enquiry: Strictly below 50 µM: is that where CC50 at 24 h of CC(C)Nc1cccnc1N1CCN(C(=O)c2cc3cc(NS(C)(=O)=O)ccc3[nH]2)CC1 sits?
Return: not fulfilled

Enquiry: I wonder whether Cc1ccnc2c1NC(=O)c1cccnc1N2C1CC1 has CC50 at 24 h below 50 µM. Can you tell?
Return: not fulfilled

====

# assayComment: Solubility in culture medium (nephelometry)
# Type: physicochemical
# experimentalConditions: 37 °C, plasma or biological fluid, kinetic from dmso stock, dosing medium with 20% serum, 37° C.; H4IIE 24 HR; read-out: Highest Soluble Concentration Tested
Reported solubility values for a set of compounds
Write it as a number; the unit µM goes unstated.

Below are worked cases with known answers.
Cc1cccc(C)c1OCC(=O)N[C@@H](Cc1ccccc1)[C@@H](O)C[C@H](Cc1ccccc1)NC(=O)[C@H](C(C)C)N1CCCNC1=O = 50
COc1cccc2c1C(=O)c1c(O)c3c(c(O)c1C2=O)C[C@@](O)(C(=O)CO)C[C@@H]3O[C@H]1C[C@H](N)[C@H](O)[C@H](C)O1 = 100
COc1cccc2c1C(=O)c1c(O)c3c(c(O)c1C2=O)C[C@@](O)(C(=O)CO)C[C@@H]3O[C@H]1C[C@H](N)[C@@H](O)[C@H](C)O1 [EPIRUBICIN, epirubicin] = 100

Enquiry: Look up and report measured solubility for this entry: C=C(C)[C@H]1Cc2c(ccc3c2O[C@@H]2COc4cc(OC)c(OC)cc4[C@@H]2C3=O)O1
Return: 100

====

Recorded measurements of CC50 at 24 h, one per entry
# assayComment: MTT reduction
# Type: cell-based, rat
# experimentalConditions: rat
Quick reminder: number only, in µM, skip the unit.

Some compounds with recorded CC50 at 24 h:
COc1cccc2c1C(=O)c1c(O)c3c(c(O)c1C2=O)C[C@@](O)(C(=O)CO)C[C@@H]3O[C@H]1C[C@H](N)[C@H](O)[C@H](C)O1 = 1
Cc1cccc(C)c1OCC(=O)N[C@@H](Cc1ccccc1)[C@@H](O)C[C@H](Cc1ccccc1)NC(=O)[C@H](C(C)C)N1CCCNC1=O = 72

Moving on to the next compound.
Enquiry: Supply reported CC50 at 24 h belonging to this compound: COc1cccc2c1C(=O)c1c(O)c3c(c(O)c1C2=O)C[C@@](O)(C(C)=O)C[C@@H]3O[C@H]1C[C@H](N)[C@H](O)[C@H](C)O1
Return: 6

====

# assayComment: Intracellular total glutathione (GSH)
# Type: cell-based, rat
# experimentalConditions: rat
readoutName: CC50 at 24 h

Examples from the recorded data:
O=C1c2c(O)ccc(O)c2C(=O)c2c(NCCNCCO)ccc(NCCNCCO)c21 = < 1000 nM
COc1cccc2c1C(=O)c1c(O)c3c(c(O)c1C2=O)C[C@@](O)(C(C)=O)C[C@@H]3O[C@H]1C[C@H](N)[C@H](O)[C@H](C)O1 = < 1000 nM

Enquiry: Retrieve CC50 at 24 h measured for Nc1nc(NC2CC2)c2ncn([C@H]3C=C[C@@H](CO)C3)c2n1 and print it.
Return: > 300000 nM

====

# Test system: P-glycoprotein (PgP)
# assayComment: P-glycoprotein (PgP) binding: MTT with and without cyclosporin A
# Assay type: cell-based, rat
# experimentalConditions: H4IIE 24 HR, MTT, 50 μM, with cyclosporin A
Recorded % Control (Compound + CSA) values for a group of compounds are listed next.
Quick reminder: number only, in %, skip the unit.

A selection of reference data follows.
O=C1c2c(O)ccc(O)c2C(=O)c2c(NCCNCCO)ccc(NCCNCCO)c21 [MITOXANTRONE, mitoxantrone] = 10.4
CC[C@@]1(O)C(=O)OCc2c1cc1n(c2=O)Cc2cc3ccccc3nc2-1 [CAMPTOTHECIN, Camptothecin] = 26.0
Cc1ccnc2c1NC(=O)c1cccnc1N2C1CC1 [NEVIRAPINE, nevirapine] = 90.2
Cc1cccc(C)c1OCC(=O)N[C@@H](Cc1ccccc1)[C@@H](O)C[C@H](Cc1ccccc1)NC(=O)[C@H](C(C)C)N1CCCNC1=O [LOPINAVIR, lopinavir] = 82.1

Consider the record given below.
Enquiry: Output % Control (Compound + CSA) of COc1cccc2c1C(=O)c1c(O)c3c(c(O)c1C2=O)C[C@@](O)(C(=O)CO)C[C@@H]3O[C@H]1C[C@H](N)[C@H](O)[C@H](C)O1 [ADRIAMYCIN, Adriamycin]
Return: 0.0

====

# assayComment: MTT reduction
# Assay type: cell-based, rat
# experimentalConditions: rat
Listing of recorded CC50 at 24 h by entry.

These solved cases illustrate the format of a correct answer.
CC(C)(C)NC(=O)[C@@H]1CN(Cc2cccnc2)CCN1C[C@@H](O)C[C@@H](Cc1ccccc1)C(=O)N[C@H]1c2ccccc2C[C@H]1O = > 300 µM
Cc1ccnc2c1NC(=O)c1cccnc1N2C1CC1 = > 300 µM

Query molecule follows.
Enquiry: Quick one: give measured CC50 at 24 h for Nc1nc(NC2CC2)c2ncn([C@H]3C=C[C@@H](CO)C3)c2n1
Return: > 300 µM

====

# assayComment: MemTox membrane leakage (AK / α-GST)
# Type: cell-based, rat
# experimentalConditions: rat
Listed compounds paired with reported CC50 at 24 h

Answered cases to consult:
CC(C)(C)NC(=O)[C@@H]1CN(Cc2cccnc2)CCN1C[C@@H](O)C[C@@H](Cc1ccccc1)C(=O)N[C@H]1c2ccccc2C[C@H]1O = > 300 µM
Nc1nc(NC2CC2)c2ncn([C@H]3C=C[C@@H](CO)C3)c2n1 = > 300 µM

Field: next compound
Enquiry: Query CC50 at 24 h for Cc1ccnc2c1NC(=O)c1cccnc1N2C1CC1
Return: > 300 µM
